Test system: bronchospasm induced by acetylcholine
Assay: Inhibition of bronchospasm (BSP) induced by acetylcholine in anaesthetized guinea pig (Konzett and Roessler)
Type: in vivo
Conditions: Cavia porcellus, iv, 1 min, acetylcholine 2.5-10 μg/kg i.v., one minute after injection of drug
metric.name: ED50 (µmol/kg)
The response must be a number in µmol/kg with no trailing unit.

# entry.smiles, system, ED50 [µmol/kg]
data = [
    ("Nc1cccc(NC(=O)CCN2CCN(C(c3ccccc3)c3ccccc3)CC2)c1", "bronchospasm induced by acetylcholine", 0.4),
    ("CN(C(=O)CCN1CCN(C(c2ccccc2)c2ccccc2)CC1)c1cccc(N)c1", "bronchospasm induced by acetylcholine", 0.4),
]

Q: Give its ED50 value. Item: CN(C)c1ccc(NC(=O)CCN2CCN(C(c3ccccc3)c3ccccc3)CC2)cc1
A: 0.8

###

Assay: Acute toxicity LD50 in the mouse (method of Weil)
Settings: in vivo, po, per os, read-out: LD50 os
Counter-ions that a name gives are not always drawn.
metric.name: LD50 (µmol/kg)
Give the number; µmol/kg is assumed, so skip it.

Study these solved cases before continuing.
# compound, unit.tag, LD50
records = [
    ("Nc1cccc(NC(=O)CCN2CCN(C(c3ccccc3)c3ccccc3)CC2)c1", "µmol/kg", 5000),
    ("CN(C)c1ccc(NC(=O)CCCN2CCN(C(c3ccccc3)c3ccccc3)CC2)cc1", "µmol/kg", 430),
    ("CNc1cccc(NC(=O)CCN2CCN(C(c3ccccc3)c3ccccc3)CC2)c1", "µmol/kg", 580),
    ("CN(C)c1cccc(NC(=O)CCN2CCN(C(c3ccccc3)c3ccccc3)CC2)c1 [Compound 2, trihydrochloride hemihydrate]", "µmol/kg", 340),
]

Q: I'd like to know its LD50. The compound in question is Nc1ccc(NC(=O)CCN2CCN(C(c3ccccc3)c3ccccc3)CC2)cc1
A: 7200

###

Each entry below carries its reported LD50.
Test: Acute toxicity LD50 in the mouse (method of Weil)
Settings: in vivo, ip, read-out: LD50 ip
Where a name gives a salt, the structure may show the parent alone.
Quick note: give the figure in µmol/kg, leave out the unit.

Consider the following illustrative entries.
# molecule, unit.tag, LD50
data = [
    ("CNc1cccc(NC(=O)CCN2CCN(C(c3ccccc3)c3ccccc3)CC2)c1 [Compound 1]", "µmol/kg", 240),
    ("CNC(=O)Nc1ccc(NC(=O)CCN2CCN(C(c3ccccc3)c3ccccc3)CC2)cc1 [Compound 7]", "µmol/kg", 1750),
    ("CN(C)c1ccc(NC(=O)CCCN2CCN(C(c3ccccc3)c3ccccc3)CC2)cc1 [Compound 8]", "µmol/kg", 230),
]

// switching to the query molecule
Q: Quick one: LD50 of CN(C)c1cccc(NC(=O)CCN2CCN(C(c3ccccc3)c3ccccc3)CC2)c1 [Compound 2, trihydrochloride hemihydrate] ?
A: 260

###

Recorded LD50, one value per entry.
Experiment: Acute toxicity LD50 in the mouse (method of Weil)
Conditions: in vivo, po, per os, read-out: LD50 os

Illustrative cases are given below, each with its answer.
# entry.smiles, LD50
measured = [
    ("CN(C)c1ccc(NC(=O)CCN2CCN(C(c3ccccc3)c3ccccc3)CC2)cc1", "> 7000 µmol/kg"),
    ("CN(C(=O)CCN1CCN(C(c2ccccc2)c2ccccc2)CC1)c1cccc(N)c1", "> 7000 µmol/kg"),
]

# next compound below
Q: Fill in: LD50 of CNC(=O)Nc1ccc(NC(=O)CCN2CCN(C(c3ccccc3)c3ccccc3)CC2)cc1 is ___
A: > 5900 µmol/kg
